Entries annotated with measured IC50
- assayedTarget: EGFR (human) (UniProt P00533)
- Sequence (P00533 whole entry, looked up): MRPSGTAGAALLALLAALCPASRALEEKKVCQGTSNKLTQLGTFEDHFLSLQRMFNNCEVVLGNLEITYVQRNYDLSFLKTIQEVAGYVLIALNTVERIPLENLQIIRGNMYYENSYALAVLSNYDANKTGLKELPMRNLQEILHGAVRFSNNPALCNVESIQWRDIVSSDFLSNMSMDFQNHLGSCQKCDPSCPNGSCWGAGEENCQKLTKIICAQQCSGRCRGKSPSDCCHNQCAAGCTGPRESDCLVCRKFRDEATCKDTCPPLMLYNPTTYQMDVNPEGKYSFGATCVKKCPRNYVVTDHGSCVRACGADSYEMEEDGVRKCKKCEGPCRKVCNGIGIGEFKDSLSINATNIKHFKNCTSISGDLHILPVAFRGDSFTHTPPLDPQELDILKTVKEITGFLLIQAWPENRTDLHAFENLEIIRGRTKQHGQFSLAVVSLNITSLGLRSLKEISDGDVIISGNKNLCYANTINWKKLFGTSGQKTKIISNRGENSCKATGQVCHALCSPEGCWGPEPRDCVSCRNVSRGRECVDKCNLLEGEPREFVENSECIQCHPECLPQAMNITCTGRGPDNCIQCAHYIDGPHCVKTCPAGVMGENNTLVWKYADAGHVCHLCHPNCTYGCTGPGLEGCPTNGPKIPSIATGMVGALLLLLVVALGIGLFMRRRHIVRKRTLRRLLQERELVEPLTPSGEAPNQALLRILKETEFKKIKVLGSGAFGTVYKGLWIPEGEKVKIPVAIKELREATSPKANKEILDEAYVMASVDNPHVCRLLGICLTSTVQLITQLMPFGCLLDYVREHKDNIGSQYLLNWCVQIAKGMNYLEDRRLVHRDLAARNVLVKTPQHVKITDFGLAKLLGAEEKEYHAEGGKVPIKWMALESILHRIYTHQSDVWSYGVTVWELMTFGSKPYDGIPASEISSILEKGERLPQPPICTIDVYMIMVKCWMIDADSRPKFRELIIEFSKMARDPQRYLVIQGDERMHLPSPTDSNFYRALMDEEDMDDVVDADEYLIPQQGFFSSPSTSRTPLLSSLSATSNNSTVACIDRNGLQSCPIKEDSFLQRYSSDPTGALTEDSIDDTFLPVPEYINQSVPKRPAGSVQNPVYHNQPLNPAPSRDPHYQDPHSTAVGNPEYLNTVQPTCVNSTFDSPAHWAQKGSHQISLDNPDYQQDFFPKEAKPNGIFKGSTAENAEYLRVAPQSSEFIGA
- assayContext: 3t3

The cases that follow already have their IC50 on record.
stdin: Look up IC50: CCOc1cc2ncc(C#N)c(Nc3ccc4c(c3)CCC4=O)c2cc1OCC
stdout: 0.0923 µg/mL

stdin: Try this compound too: CCOc1cc2ncc(C#N)c(Nc3ccc4c(c3)CCC4)c2cc1OCC
stdout: 0.525 µg/mL

stdin: Cool, now CCOc1cc2ncc(C#N)c(Nc3ccc4c(c3)S(=O)(=O)C=C4)c2cc1OCC
stdout: 0.392 µg/mL

stdin: // same read-out, input: CCOc1cc2ncc(C#N)c(Nc3ccc4c(c3)OCCO4)c2cc1OCC
stdout: 0.853 µg/mL

Next compound, IC50 to be filled in.
stdin: Reported IC50 for COCCOc1cc2ncc(C#N)c(Nc3ccc4cn[nH]c4c3)c2cc1OCCOC : what is it?
stdout: > 5 µg/mL

---

- assayedTarget: EGFR (human) (UniProt P00533)
- assayContext: a431
The following molecules are listed with their measured IC50 values.

Record excerpt, results attached:
stdin: State the recorded IC50 for this entry: CCOc1cc2ncc(C#N)c(Nc3ccc4[nH]c(=O)oc(=O)c4c3)c2cc1OCC
stdout: > 5 mg/L

stdin: One more molecule: CCOc1cc2ncc(C#N)c(Nc3ccc4c(=O)[nH][nH]c(=O)c4c3)c2cc1OCC
stdout: > 5 mg/L

New cases:
stdin: Report IC50 for CCOc1cc2ncc(C#N)c(Nc3ccc4c(C)cc(=O)oc4c3)c2cc1OCC please.
stdout: 0.369 mg/L

stdin: // query: CCOc1cc2ncc(C#N)c(Nc3ccc4cc[nH]c4c3)c2cc1OCC
stdout: 0.123 to 0.216 mg/L

stdin: Now try CCOc1cc2ncc(C#N)c(Nc3ccc4c(c3)C(=O)OC4)c2cc1OCC .
stdout: > 5 mg/L

stdin: Request: CCOc1cc2ncc(C#N)c(Nc3ccc4c(c3)C(=O)NCC(=O)N4C)c2cc1OCC
stdout: > 5 mg/L

stdin: And for CCOc1cc2ncc(C#N)c(Nc3ccc4cn[nH]c4c3)c2cc1OCC ?
stdout: 0.025 mg/L

stdin: Repeat for the following molecule: CCOc1cc2ncc(C#N)c(Nc3ccc4c(c3)CCC4=O)c2cc1OCC
stdout: 0.0244 mg/L

---

Here, each record is paired with measured IC50 data.
- assayedTarget: EGFR (human) (UniProt P00533)
- assayContext: mda-mb-435
Field: numeric (µg/mL). Do not append units.

stdin: Any idea what its IC50 is? The compound is COCCOc1cc2ncc(C#N)c(Nc3ccc4cn[nH]c4c3)c2cc1OCCOC
stdout: 2.04

For the next question, use this compound.
stdin: Entry under review: CCOc1cc2ncc(C#N)c(Nc3ccc4c(c3)C(=O)OC4)c2cc1OCC . Reported IC50?
stdout: 3.4

---

- assayedTarget: EGFR (human)
- assayContext: mda-mb-435
experimentalEndpoint: log10 of IC50 (log10 of the value in µg/mL)
The figures below represent log10 of IC50, where IC50 is stated in µg/mL.

Example entries begin here.
stdin: # lookup: log10 of IC50 of CCOc1cc2ncc(C#N)c(Nc3ccc4c(c3)OCCO4)c2cc1OCC
stdout: -0.63

stdin: What do we get for CCOc1cc2ncc(C#N)c(Nc3ccc4c(c3)CCC4)c2cc1OCC ?
stdout: -0.45

stdin: Queued: CCOc1cc2ncc(C#N)c(Nc3ccc4cn[nH]c4c3)c2cc1OCC
stdout: -1.70

stdin: Field entry: CCOc1cc2c(Nc3ccc4cn[nH]c4c3)c(C#N)cnc2cc1OC
stdout: 0.42

stdin: Query CCOc1cc2ncc(C#N)c(Nc3ccc4c(c3)CCC4=O)c2cc1OCC next
stdout: -1.55

Next:
stdin: Value lookup for log10 of IC50; key = CCOc1cc2ncc(C#N)c(Nc3ccc4c[nH]nc4c3)c2cc1OC
stdout: -1.44

stdin: Item: CCOc1cc2ncc(C#N)c(Nc3ccc4c(c3)S(=O)(=O)C=C4)c2cc1OCC
stdout: -2.48
